Form field: IC50 (one value per entry).
target: human SGLT2 (Homo sapiens, UniProt P31639, I433V); test: Assay for inhibitory effect on human SGLT2 activity (uptake of methyl-α-D-glucopyranoside in COS-7 cells transiently expressing human SGLT2); details: uptake of methyl-α-D-(U-14C)-glucopyranoside, 37° C., 2 hours
Sequence (P31639 whole entry I433V): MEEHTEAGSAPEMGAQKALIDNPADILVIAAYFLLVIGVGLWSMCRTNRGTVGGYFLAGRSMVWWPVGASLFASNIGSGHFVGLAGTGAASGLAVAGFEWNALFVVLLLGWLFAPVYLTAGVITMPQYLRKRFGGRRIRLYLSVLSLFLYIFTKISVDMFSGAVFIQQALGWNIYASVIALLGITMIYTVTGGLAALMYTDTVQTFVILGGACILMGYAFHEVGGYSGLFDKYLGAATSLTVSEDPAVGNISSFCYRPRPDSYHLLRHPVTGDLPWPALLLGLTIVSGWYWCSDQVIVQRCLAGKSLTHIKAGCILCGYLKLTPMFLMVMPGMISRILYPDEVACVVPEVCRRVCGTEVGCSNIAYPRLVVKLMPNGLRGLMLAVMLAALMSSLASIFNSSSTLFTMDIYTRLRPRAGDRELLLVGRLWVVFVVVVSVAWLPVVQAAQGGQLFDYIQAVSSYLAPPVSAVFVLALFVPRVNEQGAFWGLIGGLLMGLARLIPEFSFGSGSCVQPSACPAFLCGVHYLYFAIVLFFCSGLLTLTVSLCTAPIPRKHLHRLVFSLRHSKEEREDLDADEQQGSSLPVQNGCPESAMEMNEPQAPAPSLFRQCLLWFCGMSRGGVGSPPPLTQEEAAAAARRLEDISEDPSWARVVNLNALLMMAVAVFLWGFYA
Entry rule: numbers only, all in nM.

Consider the following illustrative entries.
INSERT INTO results (molecule, output_unit, quantitative_readout) VALUES
  ('COc1ccc(Cc2c(C)cc(C)cc2O[C@@H]2O[C@H](CO)[C@@H](O)[C@H](O)[C@H]2O)cc1 [Example 37]', 'nM', 290),
  ('OC/C=C/c1ccc(Cc2ccccc2O[C@@H]2O[C@H](CO)[C@@H](O)[C@H](O)[C@H]2O)cc1 [Example 19]', 'nM', 120),
  ('Cc1cc(C)c(Cc2ccc(CCO)cc2)c(O[C@@H]2O[C@H](CO)[C@@H](O)[C@H](O)[C@H]2O)c1 [Example 31]', 'nM', 59);

Prompt: Suppose we examine the molecule Cc1cc(C)c(Cc2ccc(CCCO)cc2)c(O[C@@H]2O[C@H](CO)[C@@H](O)[C@H](O)[C@H]2O)c1 [Example 30] ; what IC50 value has been reported?
Completion: 30

Prompt: Suppose we examine the molecule CCc1ccc(Cc2ccc(N)cc2O[C@@H]2O[C@H](CO)[C@@H](O)[C@H](O)[C@H]2O)cc1 [Example 29] ; what IC50 value has been reported?
Completion: 10
